- TARGET SYSTEM: recombinant human HDACs (Homo sapiens)
- ASSAY PROTOCOL: HDAC enzymatic assay
- Assay type: biochemical
- CONDITION CONTEXT: 5 nM HDAC enzyme, 5 h pre-incubation, 17 h reaction at 25° C.; isoform not given; read-out: IC50
pIC50: −log10 of the molar value.
MEASURED ATTRIBUTE: pIC50

Go through the list and state pIC50 for each entry.
1. Nc1ccc(-c2ccc(F)cc2)nc1NC(=O)N1Cc2cccnc2C1
2. Nc1ccc(-c2ccc(F)cc2)nc1NC(=O)N1CC2CCC(C1)O2
3. Cn1cc(CN2CCCC3(CCC(C(=O)Nc4nc(-c5ccc(F)cc5)ccc4N)C3)C2)cn1 (stereo not shown)
4. CN1CC(C(=O)Nc2nc(-c3ccc(F)cc3)ccc2N)C1
5. Nc1ccc(-c2ccc(F)cc2)nc1NC(=O)N1Cc2ccc(CO)cc2C1
6. Nc1ccc(-c2ccc(F)cc2)nc1NC(=O)N1CC2CN(C3COC3)CC2C1 (stereo not shown)

[out]
1: 6.30 to 7.00; 2: < 5.30; 3: < 5.30; 4: < 5.30; 5: 6.30 to 7.00; 6: < 5.30

Go through the list and state pIC50 for each entry.
1. Nc1ccc(-c2ccc(F)cc2)nc1NC(=O)N1Cc2cc(N3CCOCC3)cnc2C1
2. Nc1ccc(-c2ccccc2)nc1NC(=O)N1CC2CC(NC3COC3)CC2C1 (stereo not shown)
3. Nc1ccc(-c2ccc(F)cc2)nc1NC(=O)N1Cc2ccc(CN3CCC(C(F)(F)F)C3)cc2C1 (stereo not shown)
4. CN(C)Cc1ccc2c(c1)CN(C(=O)Nc1nc(-c3ccc(F)cc3)ccc1N)C2

[out]
6.30 to 7.00
5.30 to 6.30
6.30 to 7.00
6.30 to 7.00

###

- TARGET SYSTEM: recombinant human HDACs (Homo sapiens)
- ASSAY PROTOCOL: HDAC enzymatic assay
- Assay type: biochemical
- CONDITION CONTEXT: 5 nM HDAC enzyme, 5 h pre-incubation, 17 h reaction at 25° C.; isoform not given; read-out: IC50
MEASURED ATTRIBUTE: IC50

Nc1ccc(-c2ccc(F)cc2)nc1NC(=O)N1Cc2cc(C3CC3)cnc2C1 = 100 to 500 nM
CN1CCC(N2C[C@@H]3C(C(=O)Nc4nc(-c5ccc(F)cc5)ccc4N)[C@@H]3C2)CC1 (stereo partly drawn) = 500 to 5000 nM
CN(C1COC1)C1CC2CN(C(=O)Nc3nc(-c4ccc(F)cc4)ccc3N)CC2C1 (stereo not drawn) = 500 to 5000 nM
CN1CCC(c2cnc3c(c2)CN(C(=O)Nc2nc(-c4cccs4)ccc2N)C3)CC1 = 100 to 500 nM
CN1CC2CN(C(=O)Nc3nc(-c4ccc(F)cc4)ccc3N)CC2C1 (stereo not drawn) = > 5000 nM
Nc1ccc(-c2ccccc2)nc1NC(=O)c1cn2c(n1)CNCC2 = 500 to 5000 nM
CN(C)Cc1ccc2c(c1)CN(C(=O)Nc1nc(-c3cccs3)ccc1N)C2 = 100 to 500 nM
Nc1ccc(-c2ccco2)nc1NC(=O)N1CC2CC(N3CC(F)C3)CC2C1 (stereo not drawn) = > 5000 nM

Go through the list and state IC50 for each entry.
1. CN1CCC(c2ccc3c(c2)CN(C(=O)Nc2nn(-c4ccccc4)cc2N)C3)CC1
2. Nc1ccc(-n2cccn2)nc1NC(=O)C1CCN(Cc2ccccc2F)CC1
3. CC(C)Cc1cnc2c(c1)CN(C(=O)Nc1nc(-c3ccc(F)cc3)ccc1N)C2

[out]
1. 100 to 500 nM
2. > 5000 nM
3. 100 to 500 nM

Go through the list and state IC50 for each entry.
1. Nc1ccc(-c2ccc(F)cc2)nc1NC(=O)N1Cc2ccncc2C1
2. CN1CCC(c2cc3c(cn2)CN(C(=O)Nc2nc(-c4ccc(F)cc4)ccc2N)C3)CC1
3. Nc1ccc(-c2ccc(F)cc2)nc1NC(=O)N1Cc2cnc(C3CCOCC3)cc2C1
4. Cn1cc(CN2CCCC3(CCN(C(=O)Nc4nn(-c5ccc(F)cc5)cc4N)C3)C2)cn1 (stereo not drawn)

[out]
1. 100 to 500 nM
2. 100 to 500 nM
3. 100 to 500 nM
4. > 5000 nM
